# ASSAY TARGET: CYP3A4 (Homo sapiens)
# Construct: purchased BD Biosciences Discovery Labware (Bedford, MA, USA)
# Sequence (P08684 whole entry): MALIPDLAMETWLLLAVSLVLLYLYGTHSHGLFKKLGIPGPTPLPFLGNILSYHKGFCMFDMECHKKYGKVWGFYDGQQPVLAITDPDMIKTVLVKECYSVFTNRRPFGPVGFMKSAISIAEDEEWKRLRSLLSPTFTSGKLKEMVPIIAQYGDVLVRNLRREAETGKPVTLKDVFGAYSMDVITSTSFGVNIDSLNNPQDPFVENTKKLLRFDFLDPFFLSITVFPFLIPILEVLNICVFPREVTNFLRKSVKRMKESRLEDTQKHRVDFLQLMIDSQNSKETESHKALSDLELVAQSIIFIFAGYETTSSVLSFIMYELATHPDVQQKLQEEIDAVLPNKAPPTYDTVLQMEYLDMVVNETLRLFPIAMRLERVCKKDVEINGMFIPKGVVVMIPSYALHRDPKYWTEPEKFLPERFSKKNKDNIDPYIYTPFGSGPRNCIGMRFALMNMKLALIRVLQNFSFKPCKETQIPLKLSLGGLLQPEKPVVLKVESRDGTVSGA
# ASSAY PROTOCOL: Inhibition of recombinant CYP oxidation (fluorescent coumarin substrate)
# Type: in vitro ADME
# PARTICULARS: read-out: Recombinant CYP IC50 (µM) with 95% confidence intervals
# Method: Incubations were carried out in a total volume of 100 µl of 100 mM Tris-HCl buffer (pH 7.4) in all black, flat-bottom Costar 96-well plates (Corning Incorporated, Corning, NY, USA). […] The samples were then preincubated at 37 °C for 10 min. […] The fluorescent signal was measured with a Victor^2 1420 multilabel plate counter (PerkinElmer Lifesciences Wallac, Turku, Finland) with excitation and emission wavelengths of 405 and 460 nm, respectively. […]
REPORTED ENDPOINT: IC50 (µM)
The figure you give is taken to be in µM; do not add the unit.

Ask: I'm curious: which IC50 was measured for C[C@@H]1O[C@@H](O[C@@H]2[C@@H](O)[C@H](OCCc3ccc(O)c(O)c3)O[C@H](CO)[C@H]2OC(=O)/C=C/c2ccc(O)c(O)c2)[C@H](O)[C@H](O)[C@H]1O [Verbascoside] tested on CYP3A4 (Homo sapiens)?
Result: 314
